Can you tell me TGI for the items I'm about to list?
- System: SF-268 CNS
- assay-explanation: NCI tumour cell line growth inhibition, 48 h
Where a SMILES comes first, the peptide text is derived from it. The star is where a group is joined. Boc = CC(C)(C)OC(=O)*

Prompt: Item CCCC1C(=O)C(CC)Cc2c(OC)ccc(OC)c21 (stereo not given) has what recorded TGI?
Completion: > 100 µM

Prompt: What would you report for "CN(C1=NS(=O)(=O)N=C(N(C)c2ccccc2)O1)c1ccccc1" ?
Completion: 57 µM

Prompt: What would you report for CC(C)Cc1ccc(C(C)/C=C2\CCC(CN3CCCC3)C2=O)cc1 (stereo not given) ?
Completion: 12.3 µM

Prompt: What would you report for "NCCCc1c(-c2ccccc2)nc(N)[nH]c1=O" ?
Completion: > 100 µM

Prompt: What would you report for N#CC(C(=O)CCC(=O)Nc1ccc(Cl)cc1)c1ccccc1Cl (stereo not given) ?
Completion: > 100 µM

Prompt: What would you report for "O=C(Nc1ccc(Cl)cc1)c1cc2cc(F)ccc2cc1O" ?
Completion: > 100 µM

Prompt: What would you report for "O=C1/C(=C/c2cccs2)NC(=S)N1CN1CCOCC1" ?
Completion: > 100 µM

Prompt: What would you report for "CCc1n[nH]c(=O)n1NC(=O)c1ccccc1C(=O)O" ?
Completion: > 100 µM

Prompt: What would you report for "S=P(c1ccccc1)(c1ccccc1)C1(C2(P(=S)(c3ccccc3)c3ccccc3)CC2)CC1" ?
Completion: > 100 µM

Prompt: What would you report for CCOCC(NC(=O)C(CC(C)C)NC(=O)OC(C)(C)C)C(N)=O (stereo not drawn) (Boc-Leu-Ser(Et)-NH2; configuration not given here) ?
Completion: > 100 µM

* * *

- Test system: RPMI-8226 leukemia
- assay-explanation: NCI tumour cell line growth inhibition, 48 h
Can you tell me TGI for the items I'm about to list?

Prompt: // map "CN(C1=NS(=O)(=O)N=C(N(C)c2ccccc2)O1)c1ccccc1" to recorded TGI (system: RPMI-8226 leukemia)
Completion: 43.9 µM

Prompt: What would you report for CCC(c1ccc(OC)cc1)C(CC)c1ccc(O)c(CN2CCCC2)c1 (stereo unspecified) ?
Completion: 6.28 µM

Prompt: What would you report for "O=C1CCCCC[C@]12SC[C@H]1CON=C12" ?
Completion: > 100 µM

Prompt: What would you report for "CCCCNC(=O)Oc1ccc2c(=O)c3sc4c(=O)c5ccccc5c(=O)c4c3c(=O)c2c1" ?
Completion: 4.42 µM

Prompt: What would you report for NC1=NC(c2ccccc2)CC(c2cc(Cl)cc(Br)c2O)=N1 (stereo unspecified) ?
Completion: 33.6 µM

Prompt: What would you report for COc1ccc(C(=O)C(Br)C(Br)C(=O)O)cc1 (stereo unspecified) ?
Completion: 53.2 µM

Prompt: What would you report for "CN(C)CCCN=c1cc2c(=O)n(CCCN(C)C)c(=O)c3c(NCCCN(C)C)cc4c(O)n(CCCN(C)C)c(=O)c1c4c3-2" ?
Completion: 46.1 µM

Prompt: What would you report for N#Cc1nn(C2OC(COC(=O)c3ccccc3)C(OC(=O)c3ccccc3)C2OC(=O)c2ccccc2)c2nc[nH]c(=O)c12 (stereo unspecified) ?
Completion: > 100 µM

Prompt: What would you report for "Cc1ccc(Nc2sc(C)cc2C#N)c([N+](=O)[O-])c1" ?
Completion: > 100 µM

Prompt: What would you report for CC(C(=O)c1ccccc1)C1(O)C(=O)Nc2ccccc21 (stereo unspecified) ?
Completion: > 100 µM

Prompt: What would you report for "O=C(N/N=C\c1ccc([N+](=O)[O-])cc1)Nc1cccc2ccccc12" ?
Completion: > 100 µM

Prompt: What would you report for "CNC(=O)c1cncc(/C=C/c2c(C)cccc2C)c1" ?
Completion: > 25 µM

Prompt: What would you report for "COc1cc2c(cc1OC)C(Cc1ccccc1CCCl)=NCC2" ?
Completion: 98.1 µM

Prompt: What would you report for "COc1ccc(C[C@H]2COC(=O)[C@@H]2Cc2ccc(O)cc2)cc1OC" ?
Completion: > 100 µM

Prompt: What would you report for "NCCCn1c2c(c3cc4c(cc3c1=O)OCO4)C(=O)c1ccccc1-2" ?
Completion: 0.208 µM

Prompt: What would you report for "NC(=O)c1cc(Cl)ccc1NC(=O)c1ccccc1-c1ccccc1" ?
Completion: > 100 µM

Prompt: What would you report for "CN(C)Cc1cccc(CN(C)C)[c]1[Sn]([Br])([c]1ccccc1)[c]1ccccc1" ?
Completion: 6.86 µM

Prompt: What would you report for NC(Cc1c[nH]c2ccccc12)C(=O)O (stereo unspecified) ?
Completion: > 300 µM

Prompt: What would you report for "CN(C)CCNC1=CC(=O)c2c(O)ccc(O)c2C1=O" ?
Completion: > 68.2 µM

Prompt: What would you report for COC(=O)c1cc2c3c(cc(O)c2[nH]1)N(C(=O)C1Cc2cc(OC)c(OC)c(OC)c2N1)CC3CCl (stereo unspecified) ?
Completion: < 0.01 µM

Prompt: What would you report for CCOC(=O)CNC1C(NC(C)=O)C(OC)OC2COC(c3ccccc3)OC21 (stereo unspecified) ?
Completion: > 100 µM

Prompt: What would you report for "C/C(=N\O)c1cccc(Nc2nc3ccccc3c3occc23)c1" ?
Completion: 31.8 µM

Prompt: What would you report for "O=C(O)c1cc(O)c2c(c1)Cc1cccc(O)c1C2=O" ?
Completion: 53.2 µM

Prompt: What would you report for COc1cccc2c1C(=O)c1c(O)c3c(c(O)c1C2=O)C[C@@](O)(/C(C)=N/NC(=O)c1ccccc1)C[C@@H]3OC1CC(N)C(O)C(C)O1 (stereo partly specified) ?
Completion: 3.85 µM

Prompt: What would you report for "Cc1cccc2c1O/C(=C\c1ncc([N+](=O)[O-])n1C)C2=O" ?
Completion: 2.01 µM

Prompt: What would you report for "Cc1ccc(O)c(-c2csc(NCN3CCN(CNc4nc(-c5cc(C)ccc5O)cs4)CC3)n2)c1" ?
Completion: > 100 µM

Prompt: What would you report for "ClC1(c2ccccc2)c2ccc(Br)cc2-c2cc(Br)ccc21" ?
Completion: 64.8 µM

Prompt: What would you report for "CSc1nc(O)c(/C=C2\C=Nc3ccccc32)[nH]1" ?
Completion: > 100 µM

Prompt: What would you report for Cc1ccc([N+](=O)[O-])cc1S(=O)(=O)Nc1ccc(C2=NNC(c3cccs3)C2)cc1 (stereo unspecified) ?
Completion: > 100 µM

Prompt: What would you report for "CC(C)c1cccc(C(C)C)c1N=C(N)C#N" ?
Completion: > 87.3 µM

Prompt: What would you report for COc1cc2ccnc3c2c(c1OC)CC1CC(O)C(OC)CC31 (stereo unspecified) ?
Completion: > 100 µM

Prompt: What would you report for "CSc1nncc2[nH]cnc12" ?
Completion: > 100 µM

Prompt: What would you report for "O=C1/C(=C/c2ccccc2)CN(CCC(=O)N2C/C(=C\c3ccccc3)C(=O)/C(=C/c3ccccc3)C2)C/C1=C\c1ccccc1" ?
Completion: 0.5 µM

Prompt: What would you report for "COc1ccccc1N1CCN(C(=O)c2ccc(NS(=O)(=O)c3cccc4cccnc34)cc2)CC1" ?
Completion: > 100 µM

Prompt: What would you report for "O=c1[nH]c(Nc2cccc(Br)c2)nc2nc[nH]c12" ?
Completion: > 100 µM

Prompt: What would you report for CC1C(c2ccc3c(c2)OCO3)c2cc3c(cc2OC1N1CCCCC1)OCO3 (stereo unspecified) ?
Completion: > 100 µM

Prompt: What would you report for CC(=O)NC1C(OCc2ccccc2)OC(COC(=O)CCCCCNc2ccc([N+](=O)[O-])c3[nH]c4ccc(O)cc4c(=O)c23)C(O)C1OC(C)C(=O)N[C@@H](C)C(=O)N[C@H](CCC(=O)OCc1ccccc1)C(N)=O (stereo partly specified) ?
Completion: 3.57 µM

Prompt: What would you report for O=CC1OC(=O)c2cc(O)c(O)c(O)c2-c2c(cc(O)c(O)c2O)C(=O)OC1C(O)C(O)CO (stereo unspecified) ?
Completion: 72.4 µM

Prompt: What would you report for "CC(=O)c1c(-c2ccccc2)c(-c2ccc(OCCN(C)C)cc2)n2ccccc12" ?
Completion: 60.2 µM

Prompt: What would you report for "Cn1c2ccccc2n2c(=O)c3cccnc3c(C#N)c12" ?
Completion: > 100 µM

Prompt: What would you report for "CC1(C)N=C(/C=N/O)C(C)(C)N1O" ?
Completion: > 100 µM

* * *

- Test system: OVCAR-4 ovarian
- assay-explanation: NCI tumour cell line growth inhibition, 48 h; in the data active means GI50 below about 0.43 µM; inactive means the rest
Just give me one of these, please: true (1) = active, false (0) = inactive

Prompt: Look up the recorded call for "O=C(NC1CCN(Cc2ccccc2)CC1)c1cc(C(=O)NC2CCN(Cc3ccccc3)CC2)cc(C(=O)NC2CCN(Cc3ccccc3)CC2)c1" in this test.
Completion: false (0)

Prompt: What would you report for "N/C(=N\c1nc2ccccc2s1)NC(=O)Nc1ccccc1Cl" ?
Completion: false (0)

Prompt: What would you report for "Oc1cccc(Cn2c(-c3cccc(O)c3O)nc3ccccc32)c1O" ?
Completion: false (0)

Prompt: What would you report for "CN(C)CCCN=c1cc2c(=O)n(CCCN(C)C)c(=O)c3c(NCCCN(C)C)cc4c(O)n(CCCN(C)C)c(=O)c1c4c3-2" ?
Completion: false (0)

Prompt: What would you report for "COc1c(B(O)O)cccc1-c1nc2c(F)cc3[nH]ncc3c2c2c1CCCC2" ?
Completion: false (0)

Prompt: What would you report for "Cc1cccc2c1NC(=O)[C@@]21[C@H](C(=O)c2ccccc2)[C@]2(C(=O)Nc3ccccc32)[C@H]2CCCN21" ?
Completion: false (0)

Prompt: What would you report for N#C/C(=C/C=C/c1ccccc1)S(=O)c1ccccc1 (stereo not drawn) ?
Completion: true (1)

Prompt: What would you report for CCC1CCCCN1C(=S)N/N=C(\C)c1ccccn1 (stereo not drawn) ?
Completion: true (1)

Prompt: What would you report for "Cc1ccc2c(N/N=C\c3ccco3)cc(C)nc2n1" ?
Completion: false (0)

Prompt: What would you report for CN(C)c1ccc2cc(-c3cc4c(oc3=O)-c3ccccc3OC4O)c(=O)oc2c1 (stereo not drawn) ?
Completion: false (0)

Prompt: What would you report for "COc1cc([C@@H]2c3cc4c(cc3[C@H](OC(C)=O)[C@H]3COC(=O)[C@H]23)OCO4)cc(OC)c1OC" ?
Completion: true (1)

Prompt: What would you report for "O=C1/C(=C/c2ccccc2)CN(CCC(=O)N2C/C(=C\c3ccccc3)C(=O)/C(=C/c3ccccc3)C2)C/C1=C\c1ccccc1" ?
Completion: false (0)

Prompt: What would you report for CCn1cc(C(=O)N/N=C/c2cccc(F)c2)c(=O)c2cc(F)c(N3CCNC(C)C3)c(F)c21 (stereo not drawn) ?
Completion: false (0)
